The origin of these recorded values is patent US20080221193A1.

# Target Under Test: human 5-HT1A receptors (Homo sapiens, UniProt P08908)
# Sequence (P08908 whole entry): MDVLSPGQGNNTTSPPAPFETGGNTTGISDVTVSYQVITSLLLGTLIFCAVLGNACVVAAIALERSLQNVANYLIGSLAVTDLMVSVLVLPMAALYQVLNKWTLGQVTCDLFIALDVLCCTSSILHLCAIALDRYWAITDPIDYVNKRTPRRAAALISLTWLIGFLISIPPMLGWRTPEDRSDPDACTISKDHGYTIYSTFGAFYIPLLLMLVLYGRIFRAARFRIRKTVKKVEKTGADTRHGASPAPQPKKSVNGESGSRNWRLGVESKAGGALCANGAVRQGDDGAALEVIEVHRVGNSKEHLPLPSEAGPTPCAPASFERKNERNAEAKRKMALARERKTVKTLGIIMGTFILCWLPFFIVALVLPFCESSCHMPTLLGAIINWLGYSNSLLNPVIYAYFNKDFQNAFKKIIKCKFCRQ
# Assay Details: 8-OH-DPAT binding in CHO cells stably transfected with human 5HT1a receptor
# Experimental Setup: displacement of [3H]8-OH-DPAT, CHO cells with human 5-HT1A; read-out: 5-HT1A Receptor Affinity Ki
Assay Metric: Ki (nM)
Please state the figure in nM; there is no need to write the unit.

> print(dat)
                               smiles.input  assay.metric  recorded.result
1  CCCOc1ccc(C(N)=O)c2c1OC[C@H](N(CCCc1c[nH]c3ccc(F)cc13)C1CCC1)C2            Ki             70.1

Param item = CCCCN(CCCc1c[nH]c2ccc(F)cc12)[C@H]1COc2c(OC)ccc(C(N)=O)c2C1 ; retrieve measured Ki. 98.7

Param item = COc1ccc(C(N)=O)c2c1OC[C@H](N(CCCc1c[nH]c3ccc(F)cc13)C1CCC1)C2 ; retrieve measured Ki. 10.4

Param item = CCCN(CCCc1c[nH]c2ccc(F)cc12)[C@H]1COc2c(OC)ccc(C(N)=O)c2C1 ; retrieve measured Ki. 20.5

Param item = CNC(=O)c1ccc(OC)c2c1C[C@@H](N(CCCc1c[nH]c3ccc(F)cc13)C1CCC1)CO2 ; retrieve measured Ki. 570

Param item = NC(=O)c1ccc(O)c2c1C[C@@H](N(CCCc1c[nH]c3ccc(F)cc13)C1CCC1)CO2 ; retrieve measured Ki. 136

Param item = CN(C)c1ccc(C(N)=O)c2c1OC[C@H](N(CCCc1c[nH]c3ccc(F)cc13)C1CCC1)C2 ; retrieve measured Ki. 72.7

Param item = CCSc1ccc(C(N)=O)c2c1OC[C@H](N(CCCc1c[nH]c3ccc(F)cc13)C1CCC1)C2 ; retrieve measured Ki. 138
